- Tested on: Saccharomyces cerevisiae
- experimental_details: protein stability index of tFT-peptide fusion in deletion strain of DAS1 (PSI (0-1 scale)); higher = more stable (slower turnover)
Quick reference: protein stability index of the listed items.
quantity_kind: protein stability index

{"columns": ["seq_text", "recorded_number"],
 "data": [
  ["VRGAPGGWRLVG", 0.684],
  ["LVVGLSCVACIN", 0.215],
  ["CTSCGYKFRTDN", 0.653],
  ["CTSCGYKFCTNN", 0.698],
  ["PDNRNHLIKLLN", 0.604],
  ["PGKRNHLIKLLN", 0.585],
  ["RLIQPAPVQFLN", 0.612],
  ["VRGAVGGGRLVG", 0.682],
  ["VRMAVGGWRLVG", 0.672],
  ["RKIQPLPVQFLN", 0.616],
  ["ARWRVGMWRGAS", 0.701],
  ["RLPQPLPVQFLN", 0.631],
  ["LVVYLSCVACAN", 0.0251],
  ["DRWRVGLWRGAS", 0.657],
  ["PDKRRHLIKLLN", 0.605],
  ["PSLAASDWRVVG", 0.68],
  ["KKHKPGQKQKIN", 0.607],
  ["CTSCGYKFRINN", 0.721],
  ["ARWRVTLWRGAS", 0.692],
  ["YTSCGYKFRTNN", 0.691],
  ["KKHKKGQKFKIN", 0.572],
  ["LKILAQKMNHQN", 0.667],
  ["PDKRNHLIKCLN", 0.634],
  ["VRGKVGGWRLVG", 0.67],
  ["KKHKKYQKQKIN", 0.587],
  ["LTILRQKMNHQN", 0.679],
  ["VRGAVGGWRGVG", 0.673],
  ["LVVYLSCAACIN", 0.166],
  ["LVVYLSCVACINT", 0.0331],
  ["LPVYLSCVACIN", 0.19],
  ["LKLLRQKMNHQN", 0.682],
  ["FSMLWTFRYWVN", 0.346],
  ["PDKRNHLIKLEN", 0.603],
  ["RLIQPLPVQLLN", 0.577],
  ["PDKRNHLIRLLN", 0.614],
  ["FSDRWTFRYWVN", 0.605],
  ["LPILRQKMNHQN", 0.683]
]}

----------
- Tested on: Saccharomyces cerevisiae
- experimental_details: protein stability index of tFT-peptide fusion (C-terminal peptide) (PSI (0-1 scale)); higher = more stable (slower turnover)
- measurement_context: genetic background: cdc53-1; temperature: 37 C
Quick reference: protein stability index of the listed items.

{"columns": ["seq_text", "protein stability index"],
 "data": [
  ["LCLRCQCIGTLS", 0.587],
  ["AFLFLFSITCIV", 0.23],
  ["SFSFCCLLASFV", 0.619],
  ["SVIAYTKPLWFR", 0.374],
  ["WLFRCFLFVVGG", 0.441],
  ["DRTRLFLLLIIA", 0.256],
  ["CPFLTLLISLDV", 0.555],
  ["WRCLHLVYLFFH", 0.438],
  ["FPFFFLSILSAV", 0.294],
  ["VGCHISAFSDLI", 0.744],
  ["WFIPRSVCRWLF", 0.684],
  ["WFGCSTVWVRVQ", 0.394],
  ["LLCGVLFFFWVV", 0.496],
  ["PPPHPPPATFLS", 0.692],
  ["PRTTHTPLLIAS", 0.658],
  ["ALHGTVRNWQRQ", 0.701],
  ["LPPFRFSLPFRR", 0.753],
  ["KRLALVSCSICG", 0.646],
  ["GSDGVGGTVLYA", 0.755]
]}
